Data credit: ChEMBL document CHEMBL4680101

Biological target: Isocitrate dehydrogenase [NADP] cytoplasmic (Homo sapiens, UniProt O75874, R132H)
Sequence (O75874 2-414 R132H limits assumed): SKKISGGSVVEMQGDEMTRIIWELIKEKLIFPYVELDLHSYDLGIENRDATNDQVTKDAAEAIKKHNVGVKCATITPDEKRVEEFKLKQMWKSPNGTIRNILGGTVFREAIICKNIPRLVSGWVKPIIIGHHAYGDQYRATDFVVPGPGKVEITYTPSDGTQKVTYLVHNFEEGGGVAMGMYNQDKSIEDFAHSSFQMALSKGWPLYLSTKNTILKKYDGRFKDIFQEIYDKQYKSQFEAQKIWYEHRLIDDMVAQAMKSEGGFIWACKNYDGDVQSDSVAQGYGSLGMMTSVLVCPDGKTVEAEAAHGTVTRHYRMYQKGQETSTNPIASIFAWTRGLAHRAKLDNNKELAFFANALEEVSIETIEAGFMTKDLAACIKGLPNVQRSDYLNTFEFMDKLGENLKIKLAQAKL
Experiment: Inhibition of IDH1 R132H mutant (unknown origin) using alpha-ketoglutarate and NADPH incubated for 60 mins by fluorescence based assay
Kindly supply the reported IC50 values for the records listed here.
Numbers only, in µM.

Check out these entries, answers already filled in.
1) CC1CC1COc1nc(N2CCC[C@@H](CC(=O)O)C2)ccc1C(=O)NC1CCCCC1 (some centres undefined) = 14
2) CC(C)CCOc1nc(N2C[C@@H]3[C@H](C2)[C@H]3C(=O)O)ccc1C(=O)NCc1ccncc1 = 6.2

Here's the next entry for you.
**Q:** Form: Entry = CC(C)CCOc1nc(N2C[C@@H]3[C@H](C2)[C@H]3C(=O)O)ccc1NS(=O)(=O)C1CCCCC1 | System = Isocitrate dehydrogenase [NADP] cytoplasmic (Homo sapiens, UniProt O75874, R132H) | IC50 = ____
**A:** 8.6

* * *

Target: Isocitrate dehydrogenase [NADP] cytoplasmic (Homo sapiens, UniProt O75874, R132H)
Test: Inhibition of IDH1 R132H mutant (unknown origin) using alpha-ketoglutarate and NADPH incubated for 60 mins by fluorescence based assay
Kindly supply the reported IC50 values for the records listed here.
Answers are plain numbers, in µM.

1. CC(C)CCOc1nc(N2C[C@@H]3[C@H](C2)[C@H]3C(=O)O)ccc1C(=O)NC1CCCCCC1 = 3.9

Here's the next entry for you.
**Q:** Form: Entry = CC(C)CCOc1nc(N2C[C@@H]3[C@H](C2)[C@H]3C(=O)O)ccc1C(=O)NC[C@@H](O)c1ccccc1 | System = Isocitrate dehydrogenase [NADP] cytoplasmic (Homo sapiens, UniProt O75874, R132H) | IC50 = ____
**A:** 3.1

* * *

Molecular target: Isocitrate dehydrogenase [NADP] cytoplasmic (Homo sapiens, UniProt O75874, R132C)
Sequence (O75874 2-414 R132C limits assumed): as the sequence (O75874 2-414 R132H limits assumed) above, with H131C counted along it
Test: Inhibition of IDH1 R132C mutant (unknown origin) using alpha-ketoglutarate and NADPH incubated for 30 mins by fluorescence based assay
endpoint-label: IC50 (nM)
Give bare numbers, in nM.

**Q:** Which IC50 value is on record for CC(C)CCOc1nc(N2C[C@@H]3[C@H](C2)[C@H]3C(=O)O)ccc1C(=O)NC1C2CC3CC1CC(O)(C3)C2 (stereo partly specified) ?
**A:** 470

* * *

Target: Isocitrate dehydrogenase [NADP] cytoplasmic (Homo sapiens, UniProt O75874)
Sequence (O75874 whole entry): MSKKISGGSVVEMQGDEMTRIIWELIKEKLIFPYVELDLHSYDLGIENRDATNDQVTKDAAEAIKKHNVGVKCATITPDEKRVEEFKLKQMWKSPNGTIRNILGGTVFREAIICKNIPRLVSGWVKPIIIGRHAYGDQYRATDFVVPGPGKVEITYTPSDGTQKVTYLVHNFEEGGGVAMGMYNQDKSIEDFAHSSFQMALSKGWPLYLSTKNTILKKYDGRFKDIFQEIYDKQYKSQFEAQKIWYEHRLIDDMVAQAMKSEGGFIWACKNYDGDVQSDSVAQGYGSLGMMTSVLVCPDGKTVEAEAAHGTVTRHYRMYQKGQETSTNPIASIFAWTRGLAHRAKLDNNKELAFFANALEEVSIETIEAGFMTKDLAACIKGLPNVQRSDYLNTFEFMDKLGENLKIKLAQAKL
Test: Inhibition of wild type IDH1 (unknown origin) using isocitrate and NADP incubated for 30 mins by fluorescence based assay
endpoint-label: IC50

**Q:** Which IC50 value is on record for CC(C)CCOc1nc(N2C[C@@H]3[C@H](C2)[C@H]3C(=O)O)ccc1C(=O)NC1C2CC3CC1CC(O)(C3)C2 (stereo partly specified) ?
**A:** > 50 µM

* * *

Biological target: Isocitrate dehydrogenase [NADP] cytoplasmic (Homo sapiens, UniProt O75874, R132H)
Assay: Inhibition of IDH1 R132H mutant (unknown origin) using alpha-ketoglutarate and NADPH incubated for 60 mins by fluorescence based assay
Rule for this label: Fulfilled means IC50 is less than 6 µM; Not fulfilled means IC50 is at least 6 µM.

**Q:** # check: IC50 < 6 µM for COc1ccccc1COc1nc(N2CCC[C@@H](CC(=O)O)C2)ccc1C(=O)NC1CCCCC1
**A:** Not fulfilled

**Q:** # check: IC50 < 6 µM for Cc1ccccc1[C@@H](C)Oc1nc(N2CCC[C@@H](CC(=O)O)C2)ccc1C(=O)NC1CCCCC1
**A:** Fulfilled

**Q:** # check: IC50 < 6 µM for CC(C)CCOc1nc(N2C[C@@H]3[C@H](C2)[C@H]3C(=O)O)ccc1C(=O)NCc1ccc(O)cc1
**A:** Not fulfilled

**Q:** # check: IC50 < 6 µM for CC(C)CCOc1nc(N2C[C@@H]3[C@H](C2)[C@H]3C(=O)O)ccc1C(=O)NC1C2CC3CC1CC(O)(C3)C2 (some centres not stated)
**A:** Fulfilled

**Q:** # check: IC50 < 6 µM for O=C(O)C[C@@H]1CCCN(c2ccc(C(=O)NC3C4CC5CC3CC(O)(C5)C4)c(OCc3ccccc3)n2)C1 (some centres not stated)
**A:** Fulfilled

**Q:** # check: IC50 < 6 µM for O=C(O)C[C@@H]1CCCN(c2ccc(C(=O)NC3CCCCC3)c(OCc3ccccc3F)n2)C1
**A:** Fulfilled

**Q:** # check: IC50 < 6 µM for Cc1cc(Cl)ccc1COc1nc(N2CCC[C@@H](CC(=O)O)C2)ccc1C(=O)NC1CCCCC1
**A:** Not fulfilled

**Q:** # check: IC50 < 6 µM for CC(C)CCOc1nc(N2CC[C@H](CC(=O)O)C2)ccc1C(=O)NC1C2CC3CC1CC(O)(C3)C2 (some centres not stated)
**A:** Fulfilled

**Q:** # check: IC50 < 6 µM for CC(C)CCOc1nc(N2C[C@@H]3[C@H](C2)[C@H]3C(=O)O)ccc1C(=O)NCc1ccc(Cl)cc1
**A:** Not fulfilled

**Q:** # check: IC50 < 6 µM for CC(C)CCOc1nc(N2C[C@@H]3[C@H](C2)[C@H]3C(=O)O)ccc1C(=O)N[C@@H](CO)c1ccccc1
**A:** Fulfilled

**Q:** # check: IC50 < 6 µM for CC1(C)CC(Oc2nc(N3CCC[C@@H](CC(=O)O)C3)ccc2C(=O)NC2CCCCC2)C1
**A:** Not fulfilled

**Q:** # check: IC50 < 6 µM for CC(C)CCOc1nc(Nc2nc(CC(=O)O)cs2)ccc1C(=O)NC1C2CC3CC1CC(O)(C3)C2 (configuration not stated)
**A:** Not fulfilled

**Q:** # check: IC50 < 6 µM for O=C(O)C[C@@H]1CCCN(c2ccc(C(=O)NC3CCCCC3)c(NC3CCCC3)n2)C1
**A:** Not fulfilled

**Q:** # check: IC50 < 6 µM for O=C(O)C[C@@H]1CCCN(c2ccc(C(=O)NC3CCCCC3)c(SCc3ccccc3F)n2)C1
**A:** Not fulfilled

**Q:** # check: IC50 < 6 µM for COC12CC3CC(C1)C(NC(=O)c1ccc(N4C[C@@H]5[C@H](C4)[C@H]5C(=O)O)nc1OCCC(C)C)C(C3)C2 (some centres not stated)
**A:** Fulfilled

**Q:** # check: IC50 < 6 µM for O=C(NC1C2CC3CC1CC(O)(C3)C2)c1ccc(N2C[C@@H]3[C@H](C2)[C@H]3C(=O)O)nc1OCc1ccccc1 (some centres not stated)
**A:** Not fulfilled

**Q:** # check: IC50 < 6 µM for C[C@H](Oc1nc(N2CCC[C@@H](CC(=O)O)C2)ccc1C(=O)NC1CCCCC1)c1ccccc1
**A:** Not fulfilled
